Provenance of the data: patent US20180291110A1

For each record, write down the corresponding koff.
target: T1, human transferrin receptor (recombinant, for surface plasmon resonance) (human, UniProt P02786 89-760); assay: SPR 25C
T1 construct: also called huTfR; human transferrin receptor-biotinylated
T1 sequence (P02786 89-760 limits assumed): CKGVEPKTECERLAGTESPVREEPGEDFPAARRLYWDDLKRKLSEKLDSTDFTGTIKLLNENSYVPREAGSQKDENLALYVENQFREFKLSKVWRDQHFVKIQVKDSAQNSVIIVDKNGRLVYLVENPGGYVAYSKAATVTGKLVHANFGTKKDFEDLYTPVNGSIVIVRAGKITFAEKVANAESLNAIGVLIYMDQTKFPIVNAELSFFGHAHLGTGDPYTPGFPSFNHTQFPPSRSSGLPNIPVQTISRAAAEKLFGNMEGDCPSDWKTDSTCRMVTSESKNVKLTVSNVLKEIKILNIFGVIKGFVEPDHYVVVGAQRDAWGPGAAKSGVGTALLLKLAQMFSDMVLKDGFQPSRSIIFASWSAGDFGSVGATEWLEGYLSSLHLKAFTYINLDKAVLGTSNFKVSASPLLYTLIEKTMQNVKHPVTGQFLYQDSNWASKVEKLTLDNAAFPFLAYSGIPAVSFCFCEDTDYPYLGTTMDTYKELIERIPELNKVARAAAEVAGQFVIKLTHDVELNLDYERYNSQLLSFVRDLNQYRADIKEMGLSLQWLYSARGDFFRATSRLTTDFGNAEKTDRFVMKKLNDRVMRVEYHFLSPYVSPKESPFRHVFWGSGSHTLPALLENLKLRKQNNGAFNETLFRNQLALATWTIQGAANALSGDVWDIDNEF
Form entry: value (s⁻¹) — number only.

Request: Using the record for 2/99 VH1/VL2 (antibody, V domains shown) VH: VQLVETGGGLIQPGGSLRLSCAASGFSLSSYAMSWVRQAPGKGLEWVGYIWSGGSTDYADSVKGRFTISRDNSKNTLYLQMNSLRAEDTAVYYCARRYGTSYPDYGDANGFDPWGQGTLVTVSS VL: DIQMTQSPSSLSASVGDRVTITCRASQSISSYLNWYQQKPGKAPKLLIYRASTLASGVPSRFSGSGSGTDFTLTISSLQPEDFATYYCQQSYSSSNVDNTFGGGTKVEIK , state its measured koff.
Response: 0.00286

Request: Output measured koff for this item: 2/99 VH12/VL7 (antibody, V domains shown) VH: QVQLQESGPGLVKPSETLSLTCTVSGFSLSSYAMSWIRQPPGKGLEWIGYIWSGGSTDYNPSLKSRVTISVDTSKNQFSLKLSSVTAADTAVYYCARRYGTSYPDYGDANGFDPWGQGTLVTVSS VL: AIQLTQSPSSLSASVGDRVTITCRASQSISSYLAWYQQKPGKAPKLLIYRASTLASGVPSRFSGSGSGTDFTLTISSLQPEDFATYYCQQSYSSSNVDNTFGGGTKVEIK
Response: 0.00771

Request: Hello, please tell me recorded koff for this one: 2/99 VH20/VL7 (antibody, V domains shown) VH: QSMQESGPGLVKPSQTLSLTCTVSGFSLSSYAMSWIRQHPGKGLEWIGYIWSGGSTDYAPSLKSRVTISVDTSKNQVSLKLSSVTAADTAVYYCARRYGTSYPDYGDANGFDPWGQGTLVTVSS VL: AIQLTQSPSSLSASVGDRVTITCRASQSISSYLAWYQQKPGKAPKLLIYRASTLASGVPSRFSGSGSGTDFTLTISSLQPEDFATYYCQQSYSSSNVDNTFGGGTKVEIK
Response: 0.00714
